Consider the following molecules; for each one, report its NF-kB reporter.
- System: RAW-Dual (murine macrophage reporter line)
- test: NF-kB reporter (SEAP) activity fold change vs agonist alone; higher = enhanced NF-kB activity
- particulars: modulator concentration 10 µM; agonist: MPLA […]

stdin: What value of NF-kB reporter has been reported for the following molecule? CC(C)(C)NCC(O)COc1cccc2c1C[C@H](O)[C@H](O)C2 (stereo not given in full)
stdout: 0.971

stdin: Further, for COc1ccc(C=NNC(=O)C2COc3cc4ccccc4cc3O2)c(O)c1 (stereo not given) ?
stdout: 0.98

stdin: Further, for Cn1nc(CNS(=O)(=O)c2cccc(C(F)(F)F)c2)c2c1CCOC2 ?
stdout: 1.02

stdin: Further, for CC1CCN(c2cc(N3CCNCC3)ncn2)CC1 ?
stdout: 1.02

stdin: Further, for C=CC(=O)Nc1cccc(Nc2nc(Nc3ccc(N4CCN(C(C)=O)CC4)cc3OC)ncc2C(F)(F)F)c1 ?
stdout: 0.977
